Value source: patent US5081126A

Consider the following compounds; for each one, report its IC50.
Test system: SRS-A (Slow Reacting Substance of Anaphylaxis) synthesis in rat polymorpholeukocyte (PMN)
Assay text: Inhibiting activity of SRS-A (Slow Reacting Substance of Anaphylaxis) synthesis in rat polymorpholeukocyte (PMN) using the calcium ionophore; i-LTC4 by radioimmunoassay
Assay type: cell-based
Test conditions: 0.25 h, 10 μM A23187, 15 min at 37° C., i-LTC4 readout
Structures can show the parent of a compound that is named as a salt.
Answer in nM, number only, no unit symbol.

Entry CCSC(SCC)c1cccc(OCc2ccc3ccccc3n2)c1 [Example 6, hydrochloride] , IC50 reported as 130

Entry CCCSC(SCCC)c1cccc(OCc2ncc3ccccc3n2)c1 [Example 22, hydrochloride] , IC50 reported as 850

Entry CCCSC(SCCC)c1ccc(OCc2ccc3ccccc3n2)cc1 [Example 5, hydrochloride] , IC50 reported as 110

Entry CC(C)SC(SC(C)C)c1cccc(OCc2ccc3ccccc3n2)c1 [Example 9, hydrochloride] , IC50 reported as 100

Entry CC(C)SC(SC(C)C)c1cccc(OCc2nc3ccccc3s2)c1 [Example 16] , IC50 reported as 110

Entry CCCSC(SCCC)c1cccc(OCc2ccc3ccccc3n2)c1 [Example 3, hydrochloride] , IC50 reported as 39

Entry CCCCCSC(SCCCCC)c1cccc(OCc2ccc3ccccc3n2)c1 [Example 8, hydrochloride] , IC50 reported as 330

Entry CCCSC(SCCC)c1cccc(OCc2ccccn2)c1 [Example 2, hydrochloride] , IC50 reported as 520

* * *

System: SRS-A (Slow Reacting Substance of Anaphylaxis) synthesis in rat polymorpholeukocyte (PMN)
Assay text: Inhibiting activity of SRS-A (Slow Reacting Substance of Anaphylaxis) synthesis in rat polymorpholeukocyte (PMN) using the calcium ionophore; i-LTC4 by radioimmunoassay
Format: cell-based
Test conditions: 0.25 h, 10 μM A23187, 15 min at 37° C., i-LTC4 readout
Counter-ions that a name gives are not always drawn.
Readout kind: pIC50
// pIC50: -log10(molar conc.)

Entry c1ccc(SC(Sc2ccccc2)c2cccc(OCc3ccc4ccccc4n3)c2)cc1 [Example 10, hydrochloride] , tested on SRS-A (Slow Reacting Substance of Anaphylaxis) synthesis in rat polymorpholeukocyte (PMN), has a reported pIC50 of 5.96

Entry c1ccc(CSC(SCc2ccccc2)c2cccc(OCc3ccc4ccccc4n3)c2)cc1 , tested on SRS-A (Slow Reacting Substance of Anaphylaxis) synthesis in rat polymorpholeukocyte (PMN), has a reported pIC50 of 5.85

Entry CCCCSC(SCCCC)c1cccc(OCc2ccc3ccccc3n2)c1 [Example 7, hydrochloride] , tested on SRS-A (Slow Reacting Substance of Anaphylaxis) synthesis in rat polymorpholeukocyte (PMN), has a reported pIC50 of 6.80

Entry CCCSC(SCCC)c1cccc(OCc2nc3ccccc3s2)c1 , tested on SRS-A (Slow Reacting Substance of Anaphylaxis) synthesis in rat polymorpholeukocyte (PMN), has a reported pIC50 of 6.52
